// data source = ChEMBL document CHEMBL1201862

Measured GI50 of individual entries
- System: XF498
- Test Description: NCI tumour cell line growth inhibition, 48 h
The source made the active and inactive calls. Cut-off read from the data, not from the text of the source: active = GI50 up to about 1.1 µM and inactive = higher. Where a SMILES comes first, the peptide text is derived from it. The star is where a group is joined. Boc = CC(C)(C)OC(=O)*

Solved entries (count: 6):
Specify GI50 for O=[N+]([O-])c1cc2c(cc1O)[nH]c1cccc([N+](=O)[O-])c12 , system XF498.
> 100 µM (inactive)

Specify GI50 for CCN(CC)CCCC(C)Nc1ccnc2cc(Cl)ccc12 (stereo not given) [CHLOROQUINE PHOSPHATE] , system XF498.
17.9 µM (inactive)

Specify GI50 for O=C(NCCCCCCNC(=O)n1cc(F)c(=O)[nH]c1=O)NCCCOCCOCCOCCOCCOCCOCCOCCOCCOCCOCCOCCOCCOCCOCCOCCOCCOCCOCCOCCOCCOCCCNC(=O)C(O)C(O)C(O)C(O)CO (stereo not given) , system XF498.
15.6 µM (inactive)

Specify GI50 for CCN(CC)CC(C)C(=O)/C=C/c1ccc(C)cc1 (stereo not given) , system XF498.
1.54 µM (inactive)

Specify GI50 for CC(C)(C)OC(=O)NC(Cc1ccc(O)cc1)C(=O)N1CCCC1C(=O)O (stereo not drawn) (Boc-Tyr-Pro-OH; configuration not given here) , system XF498.
> 100 µM (inactive)

Specify GI50 for COC(=O)Cc1cc(=O)[nH]c2c1C(=O)CCC2 , system XF498.
> 100 µM (inactive)

---
Specify GI50 for CCOC(=O)C/C(=N\c1cc(C)on1)N(CC)CC.[O-][Cl+3]([O-])([O-])O , system XF498.
> 100 µM (inactive)

Specify GI50 for COC(=O)[C@@]12C(=O)CCC(=O)C1C1C(=CC2C)O[C@@H]2OC3(CCCCC3)O[C@H]12 (stereo not given in full) , system XF498.
> 38.4 µM (inactive)

Specify GI50 for COc1ccc(/C(Cl)=C(\C=O)c2ccc([N+](=O)[O-])cc2)cc1OC , system XF498.
7.4 µM (inactive)

Specify GI50 for NC(=O)NC12CC3CC(CC(F)(C3)C1)C2 , system XF498.
> 100 µM (inactive)
